measured_on: T1, EcDXR-6His (Escherichia coli, UniProt P45568 1-398)
T1 sequence: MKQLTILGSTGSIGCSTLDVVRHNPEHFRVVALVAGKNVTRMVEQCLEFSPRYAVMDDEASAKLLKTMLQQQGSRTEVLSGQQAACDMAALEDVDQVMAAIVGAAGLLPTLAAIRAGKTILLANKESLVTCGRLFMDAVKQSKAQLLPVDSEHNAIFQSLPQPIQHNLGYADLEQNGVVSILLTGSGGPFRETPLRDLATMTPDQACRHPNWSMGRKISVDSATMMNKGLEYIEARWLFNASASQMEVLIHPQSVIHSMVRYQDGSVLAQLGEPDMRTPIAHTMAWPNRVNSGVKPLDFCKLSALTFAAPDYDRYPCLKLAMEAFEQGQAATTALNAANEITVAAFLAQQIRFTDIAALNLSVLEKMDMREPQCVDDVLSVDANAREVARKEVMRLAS
protocol_summary: bead-based flow cytometry saturation binding; protein on latex beads; Bmax 1.67; Kd: PBS pH 7.4, 60 min, dark, 0.3-5.4 uM aptamer; EMSA: 10 mM NaCl, 0.02% Tween-20, 50 mM HEPES pH 8.0, RT 60 min, 2% agarose 0.5x TB
particulars: protein: recombinant; tags: C-term 6xHis; label: 5' 6FAM; folded 90/5/37 C before use
experimental_endpoint: Kd (nM)
Answer in nM, number only, no unit symbol.

Prompt: Answer with the recorded Kd of 6FAM-D10 (ssDNA) DNA: ATACCAGCTTATTCAATTCACTGCCACACCACGCCCTGCCATCCGCACATCCATCGTGAGATAGTAAGTGCAATCT only.
Response: 290
